FYI, the data here is from ChEMBL document CHEMBL1143667.

Each entry below carries its recorded pEC50.
- System tested: Delta-type opioid receptor (Homo sapiens, UniProt P41143)
- Sequence (P41143 whole entry): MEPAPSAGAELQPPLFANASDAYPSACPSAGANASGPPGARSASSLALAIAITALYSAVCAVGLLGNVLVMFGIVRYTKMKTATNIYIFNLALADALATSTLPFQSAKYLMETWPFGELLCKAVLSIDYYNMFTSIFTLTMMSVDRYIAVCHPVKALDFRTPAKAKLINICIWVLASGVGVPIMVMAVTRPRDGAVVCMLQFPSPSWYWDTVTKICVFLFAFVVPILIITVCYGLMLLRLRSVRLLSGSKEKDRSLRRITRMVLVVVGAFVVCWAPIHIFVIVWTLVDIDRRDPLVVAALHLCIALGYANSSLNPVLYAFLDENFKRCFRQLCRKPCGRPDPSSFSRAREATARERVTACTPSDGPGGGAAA
- Test method notes: Agonist activity at human delta opioid receptor expressed in CHO membrane assessed as stimulation of [35S]GTP-gamma-S binding
pEC50: −log10 of the molar value.
Measured endpoint: pEC50

>>> print(df.to_string())
                                 cpd_smiles                             system_tested  measured
0  COc1ccc2c(c1)[C@]13CCN(CC4CC4)[C@H](C2)[C@@H]1Cc1c([nH]c2ccccc12)C3  Delta-type opioid receptor (Homo sapiens, UniProt P41143)      8.82
1  CN1CC[C@]23Cc4nc(N)sc4C[C@H]2[C@H]1Cc1ccc(O)cc13  Delta-type opioid receptor (Homo sapiens, UniProt P41143)      8.08
2  Nc1nc2c(s1)C[C@H]1[C@H]3Cc4ccc(O)cc4[C@@]1(CCN3CC1CC1)C2  Delta-type opioid receptor (Homo sapiens, UniProt P41143)      9.77
3  CN1CC[C@]23Cc4[nH]c5ccccc5c4C[C@H]2[C@H]1Cc1ccc(O)cc13  Delta-type opioid receptor (Homo sapiens, UniProt P41143)      9.33
4  COc1ccc2c(c1)[C@]13CCN(CC4CCC4)[C@H](C2)[C@@H]1Cc1c([nH]c2ccccc12)C3  Delta-type opioid receptor (Homo sapiens, UniProt P41143)      7.64
5  Oc1ccc2c(c1)[C@]13CCN(CC4CCC4)[C@H](C2)[C@@H]1Cc1c([nH]c2ccccc12)C3  Delta-type opioid receptor (Homo sapiens, UniProt P41143)      9.10
6  Oc1ccc2c(c1)[C@]13CCN(CC4CC4)[C@H](C2)[C@@H]1Cc1c([nH]c2ccccc12)C3  Delta-type opioid receptor (Homo sapiens, UniProt P41143)      9.80
7  Nc1nc2c(s1)C[C@H]1[C@H]3Cc4ccc(O)cc4[C@@]1(CCN3CC1CCC1)C2  Delta-type opioid receptor (Homo sapiens, UniProt P41143)      8.60
